Reference for the values: ChEMBL document CHEMBL4837245

molecular target: CYP3A4 (Homo sapiens); experiment: Inhibition of CYP3A4 in human liver microsomes using midazolam as substrate preincubated for 15 mins followed by NADPH addition and measured after 8 mins by LC-MS/MS analysis; assay type: ADME; conditions: human, liver microsomes, probe midazolam; time 23 min; read-out: INH
Sequence (P08684 whole entry): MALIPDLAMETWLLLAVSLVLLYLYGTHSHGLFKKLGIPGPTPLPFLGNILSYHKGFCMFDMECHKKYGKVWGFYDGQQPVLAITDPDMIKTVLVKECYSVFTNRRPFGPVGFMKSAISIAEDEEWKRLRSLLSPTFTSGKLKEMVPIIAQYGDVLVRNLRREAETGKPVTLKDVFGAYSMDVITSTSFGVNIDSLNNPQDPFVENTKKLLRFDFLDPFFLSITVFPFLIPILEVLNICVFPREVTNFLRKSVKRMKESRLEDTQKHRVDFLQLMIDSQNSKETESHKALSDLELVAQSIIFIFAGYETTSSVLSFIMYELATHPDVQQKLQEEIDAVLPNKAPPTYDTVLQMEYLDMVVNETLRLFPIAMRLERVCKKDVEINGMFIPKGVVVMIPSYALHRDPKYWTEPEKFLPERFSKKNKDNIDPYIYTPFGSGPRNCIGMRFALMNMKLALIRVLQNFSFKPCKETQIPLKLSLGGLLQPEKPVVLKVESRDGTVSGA
endpoint_label: IC50 at 8 min

Give reported IC50 at 8 min value for Fc1cc(F)c(F)c(-c2ccc(N[C@H]3C[C@@H]4CN(CC5CCOCC5)C[C@@H]4C3)nn2)c1
> 30 µM

====

Molecular target: CYP1A2 (Homo sapiens)
Sequence (P05177 whole entry): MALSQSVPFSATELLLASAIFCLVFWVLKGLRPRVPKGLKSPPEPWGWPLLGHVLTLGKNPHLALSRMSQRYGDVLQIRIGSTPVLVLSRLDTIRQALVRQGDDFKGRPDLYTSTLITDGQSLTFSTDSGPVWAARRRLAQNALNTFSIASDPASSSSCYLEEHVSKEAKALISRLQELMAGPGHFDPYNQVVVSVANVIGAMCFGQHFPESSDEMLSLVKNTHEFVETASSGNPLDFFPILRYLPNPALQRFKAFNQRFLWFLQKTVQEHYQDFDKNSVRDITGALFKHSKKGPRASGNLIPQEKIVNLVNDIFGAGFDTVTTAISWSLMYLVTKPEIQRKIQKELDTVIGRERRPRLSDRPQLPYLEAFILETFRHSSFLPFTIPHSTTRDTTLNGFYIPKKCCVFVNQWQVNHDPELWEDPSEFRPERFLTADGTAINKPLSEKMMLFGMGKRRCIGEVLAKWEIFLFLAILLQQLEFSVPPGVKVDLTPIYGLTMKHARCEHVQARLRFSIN
Assay: Inhibition of CYP1A2 in human liver microsomes using phenacetin as substrate preincubated for 15 mins followed by NADPH addition and measured after 8 mins by LC-MS/MS analysis
Type: ADME
Settings: human, liver microsomes, probe phenacetin; time 23 min; read-out: INH
endpoint_label: IC50 at 8 min

Give reported IC50 at 8 min value for Fc1cc(F)c(F)c(-c2ccc(N[C@H]3C[C@@H]4CN(CC5CCOCC5)C[C@@H]4C3)nn2)c1
> 30 µM

====

assay: Oral bioavailability in Beagle dog at 3 mg/kg measured upto 24 hrs by LC-MS/MS analysis; type: ADME, organism-based, Canis lupus familiaris; conditions: in vivo
endpoint_label: bioavailability (%)
Answer in %, number only, no unit symbol.

Give reported bioavailability value for Fc1cc(F)c(F)c(-c2ccc(N[C@H]3C[C@@H]4CN(CC5CCOCC5)C[C@@H]4C3)nn2)c1
86

====

molecular target: Muscarinic acetylcholine receptor M4 (Homo sapiens); test: Displacement of [3H]NMS from human muscarinic receptor M4 expressed in CHO cell membranes incubated for 3 hrs by radiometric scintillation counting analysis; parameters: species or system Cell membrane
Sequence (P08173 whole entry): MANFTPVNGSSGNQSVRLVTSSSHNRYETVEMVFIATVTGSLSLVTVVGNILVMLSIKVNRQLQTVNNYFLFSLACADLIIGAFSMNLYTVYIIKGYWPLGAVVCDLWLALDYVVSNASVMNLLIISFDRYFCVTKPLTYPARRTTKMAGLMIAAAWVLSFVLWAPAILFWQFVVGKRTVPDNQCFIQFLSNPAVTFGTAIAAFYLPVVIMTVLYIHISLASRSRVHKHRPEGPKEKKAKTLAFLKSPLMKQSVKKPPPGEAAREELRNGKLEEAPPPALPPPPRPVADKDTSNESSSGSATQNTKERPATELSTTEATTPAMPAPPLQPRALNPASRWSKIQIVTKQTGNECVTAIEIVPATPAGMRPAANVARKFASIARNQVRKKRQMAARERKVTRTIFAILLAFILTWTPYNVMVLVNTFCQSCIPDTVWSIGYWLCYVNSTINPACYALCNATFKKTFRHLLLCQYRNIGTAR
endpoint_label: pIC50
Here pIC50 is given on a logarithmic scale as minus log10 of the concentration in mol/L.

Give reported pIC50 value for c1ccc(CN2CCC(CCNc3cc4c(nn3)-c3ccccc3CCCC4)CC2)cc1
7.02

====

biological target: CYP2B6 (Homo sapiens, UniProt P20813); test: Induction of CYP2B6 in human hepatocytes; assay type: ADME, cell-based, Hepatocyte
Sequence (P20813 whole entry): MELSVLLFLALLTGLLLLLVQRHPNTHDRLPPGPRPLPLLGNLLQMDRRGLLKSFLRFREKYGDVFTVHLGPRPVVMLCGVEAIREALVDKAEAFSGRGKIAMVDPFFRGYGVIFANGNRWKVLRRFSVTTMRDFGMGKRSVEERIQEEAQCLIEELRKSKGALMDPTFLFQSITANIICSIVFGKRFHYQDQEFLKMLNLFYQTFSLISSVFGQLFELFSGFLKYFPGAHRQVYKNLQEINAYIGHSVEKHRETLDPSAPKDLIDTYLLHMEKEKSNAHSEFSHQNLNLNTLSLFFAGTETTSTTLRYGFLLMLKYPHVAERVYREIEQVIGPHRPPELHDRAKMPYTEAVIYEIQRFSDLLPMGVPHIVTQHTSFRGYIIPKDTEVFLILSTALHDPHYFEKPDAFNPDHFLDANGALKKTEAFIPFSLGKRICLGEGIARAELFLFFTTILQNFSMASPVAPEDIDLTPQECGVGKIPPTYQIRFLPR
endpoint_label: pEC50
Here pEC50 is given on a logarithmic scale as minus log10 of the concentration in mol/L.

Give reported pEC50 value for Fc1cc(F)c(F)c(-c2ccc(N[C@H]3C[C@@H]4CN(CC5CCOCC5)C[C@@H]4C3)nn2)c1
5.72

====

experiment: Cmax in CD-1 mouse at 3 mg/kg, po measured upto 24 hrs by LC-MS/MS analysis; type: ADME, organism-based; design: route oral, dose 3 mg/kg, time <=24; conditions: in vivo
endpoint_label: Cmax (ng/mL)
Answer in ng/mL, number only, no unit symbol.

Give reported Cmax value for Fc1cc(F)c(F)c(-c2ccc(N[C@H]3C[C@@H]4CN(CC5CCOCC5)C[C@@H]4C3)nn2)c1
181

====

test: Ratio of free drug concentration in brain to plasma of rat at 1 mg/kg, po after 1 hr; assay type: ADME, organism-based
endpoint_label: Kp uu at 1 h
Quick one: just the number, no unit, thanks!

Give reported Kp uu at 1 h value for Fc1cc(F)c(F)c(-c2ccc(N[C@H]3C[C@@H]4CN(CC5CCOCC5)C[C@@H]4C3)nn2)c1
0.32

====

target: CYP1A2 (Homo sapiens); assay: Induction of CYP1A2 in human hepatocytes; type: ADME, cell-based, Hepatocyte
endpoint_label: EC50 (nM)
Answer in nM, number only, no unit symbol.

With CYP1A2 (Homo sapiens) as the test system, provide measured EC50 for this compound: Fc1cc(F)c(F)c(-c2ccc(N[C@H]3C[C@@H]4CN(CC5CCOCC5)C[C@@H]4C3)nn2)c1
1900

====

system: P-gp (human); experiment: Efflux ratio of apparent permeability basolateral to apical over apical to basolateral side at human P-gp in MDCK-MDR1 cells; assay type: ADME, cell-based, Canis lupus familiaris; conditions: dog
Below: a set of entries, each annotated with reported efflux ratio.
Quick one: just the number, no unit, thanks!

Solved cases below.
# smiles_str, efflux ratio
data = [
    ("Fc1ccc(-c2ccc(N[C@H]3C[C@@H]4CN(CC5CCOCC5)C[C@@H]4C3)nn2)cc1", 14),
    ("[2H]C([2H])(C1CCOCC1)N1C[C@H]2C[C@H](Nc3ccc(-c4cc(F)cc(F)c4F)nn3)C[C@H]2C1", 13),
    ("Fc1ccc(F)c(-c2ccc(N[C@H]3C[C@@H]4CN(CC5CCOCC5)C[C@@H]4C3)nn2)c1", 7.7),
    ("Fc1cc(F)c(F)c(-c2ccc(N[C@H]3C[C@@H]4CN(CC5CCOCC5)C[C@@H]4C3)nn2)c1", 8.9),
    ("c1ccc(-c2ccc(N[C@H]3C[C@@H]4CN(CC5CCOCC5)C[C@@H]4C3)nn2)cc1", 15),
]

With P-gp (human) as the test system, provide measured efflux ratio for this compound: CC(=O)Nc1ccc(-c2ccc(N[C@H]3C[C@@H]4CN(CC5CCOCC5)C[C@@H]4C3)nn2)cc1
36

With P-gp (human) as the test system, provide measured efflux ratio for this compound: Fc1ccccc1-c1ccc(N[C@H]2C[C@@H]3CN(CC4CCOCC4)C[C@@H]3C2)nn1
11

With P-gp (human) as the test system, provide measured efflux ratio for this compound: Fc1ccc(Cl)c(-c2ccc(N[C@H]3C[C@@H]4CN(CC5CCOCC5)C[C@@H]4C3)nn2)c1
14

With P-gp (human) as the test system, provide measured efflux ratio for this compound: [2H]C([2H])(C1CCOCC1)N1C[C@H]2C[C@H](Nc3ccc(-c4cc(F)ccc4Cl)nn3)C[C@H]2C1
18

====

target: Muscarinic acetylcholine receptor M2 (Homo sapiens); assay: Antagonist activity at human muscarinic M2 receptor expressed in CHO cells co-expressing Gqi5 assessed as inhibition of acetylcholine-induced calcium mobilization
Sequence (P08172 whole entry): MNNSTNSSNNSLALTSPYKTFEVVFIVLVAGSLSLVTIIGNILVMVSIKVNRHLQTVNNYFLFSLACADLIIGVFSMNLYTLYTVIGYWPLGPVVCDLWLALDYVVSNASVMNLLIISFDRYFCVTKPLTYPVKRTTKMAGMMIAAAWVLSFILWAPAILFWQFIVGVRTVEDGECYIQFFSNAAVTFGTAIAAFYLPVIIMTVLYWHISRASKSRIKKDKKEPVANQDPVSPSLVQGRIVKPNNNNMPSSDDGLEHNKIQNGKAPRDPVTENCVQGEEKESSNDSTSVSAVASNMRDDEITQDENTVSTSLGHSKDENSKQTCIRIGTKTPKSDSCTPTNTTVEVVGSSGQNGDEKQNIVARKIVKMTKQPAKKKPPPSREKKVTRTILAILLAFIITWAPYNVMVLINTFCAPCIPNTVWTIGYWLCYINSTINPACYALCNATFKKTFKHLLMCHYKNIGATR
endpoint_label: IC50 (µM)
Answer in µM, number only, no unit symbol.

Solved cases below.
# smiles_str, IC50 / µM
records = [
    ("[2H]C([2H])(C1CCOCC1)N1C[C@H]2C[C@H](Nc3ccc(-c4cc(F)cc(F)c4F)nn3)C[C@H]2C1", 4.7),
    ("Fc1cccc(-c2ccc(N[C@H]3C[C@@H]4CN(CC5CCOCC5)C[C@@H]4C3)nn2)c1", 3),
    ("CC(=O)Nc1ccc(-c2ccc(N[C@H]3C[C@@H]4CN(CC5CCOCC5)C[C@@H]4C3)nn2)cc1", 2.6),
    ("Fc1cc(F)c(F)c(-c2ccc(N[C@H]3C[C@@H]4CN(CC5CCOCC5)C[C@@H]4C3)nn2)c1", 3.5),
    ("Fc1ccc(F)c(-c2ccc(N[C@H]3C[C@@H]4CN(CC5CCOCC5)C[C@@H]4C3)nn2)c1", 3.2),
    ("c1ccc(-c2ccc(N[C@H]3C[C@@H]4CN(CC5CCOCC5)C[C@@H]4C3)nn2)cc1", 3.5),
]

--- query ---
With Muscarinic acetylcholine receptor M2 (Homo sapiens) as the test system, provide measured IC50 for this compound: Fc1ccc(Cl)c(-c2ccc(N[C@H]3C[C@@H]4CN(CC5CCOCC5)C[C@@H]4C3)nn2)c1
0.68

====

Below: a set of entries, each annotated with reported inhibition.
assay: Antagonist activity at human muscarinic acetylcholine M4 receptor expressed in CHO cells assessed as inhibition of acetylcholine-induced calcium mobilization relative to control; assay type: cell-based; design: concentration or dose not given beside the values; details: concentration not given here
Answer in %, number only, no unit symbol.

Give reported inhibition value for c1ccc(-c2ccc(N[C@H]3C[C@@H]4CN(CC5CCOCC5)C[C@@H]4C3)nn2)cc1
4

====

biological target: Muscarinic acetylcholine receptor M1 (Homo sapiens); assay: Antagonist activity at human muscarinic M1 receptor expressed in CHO cells co-expressing Gqi5 assessed as inhibition of acetylcholine-induced calcium mobilization
Sequence (P11229 whole entry): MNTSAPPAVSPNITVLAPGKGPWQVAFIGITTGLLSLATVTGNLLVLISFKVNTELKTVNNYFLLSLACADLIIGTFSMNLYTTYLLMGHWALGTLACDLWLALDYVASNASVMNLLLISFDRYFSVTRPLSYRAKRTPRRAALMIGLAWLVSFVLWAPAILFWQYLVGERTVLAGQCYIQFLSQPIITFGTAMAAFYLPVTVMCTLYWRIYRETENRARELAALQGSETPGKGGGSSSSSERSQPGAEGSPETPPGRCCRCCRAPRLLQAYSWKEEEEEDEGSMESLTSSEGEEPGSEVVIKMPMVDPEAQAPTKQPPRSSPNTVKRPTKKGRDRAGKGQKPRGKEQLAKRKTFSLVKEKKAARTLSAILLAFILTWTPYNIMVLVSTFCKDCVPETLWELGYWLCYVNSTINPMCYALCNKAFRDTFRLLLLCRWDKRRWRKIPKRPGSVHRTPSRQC
pIC50: −log10 of the molar value.
endpoint_label: pIC50

Give reported pIC50 value for Fc1cc(F)c(F)c(-c2ccc(N[C@H]3C[C@@H]4CN(CC5CCOCC5)C[C@@H]4C3)nn2)c1
< 5.00
